- assayedTarget: BTK (Homo sapiens)
- Construct: endogenous in cells; host or cells: TMD-8 cells
- Sequence (Q06187 whole entry): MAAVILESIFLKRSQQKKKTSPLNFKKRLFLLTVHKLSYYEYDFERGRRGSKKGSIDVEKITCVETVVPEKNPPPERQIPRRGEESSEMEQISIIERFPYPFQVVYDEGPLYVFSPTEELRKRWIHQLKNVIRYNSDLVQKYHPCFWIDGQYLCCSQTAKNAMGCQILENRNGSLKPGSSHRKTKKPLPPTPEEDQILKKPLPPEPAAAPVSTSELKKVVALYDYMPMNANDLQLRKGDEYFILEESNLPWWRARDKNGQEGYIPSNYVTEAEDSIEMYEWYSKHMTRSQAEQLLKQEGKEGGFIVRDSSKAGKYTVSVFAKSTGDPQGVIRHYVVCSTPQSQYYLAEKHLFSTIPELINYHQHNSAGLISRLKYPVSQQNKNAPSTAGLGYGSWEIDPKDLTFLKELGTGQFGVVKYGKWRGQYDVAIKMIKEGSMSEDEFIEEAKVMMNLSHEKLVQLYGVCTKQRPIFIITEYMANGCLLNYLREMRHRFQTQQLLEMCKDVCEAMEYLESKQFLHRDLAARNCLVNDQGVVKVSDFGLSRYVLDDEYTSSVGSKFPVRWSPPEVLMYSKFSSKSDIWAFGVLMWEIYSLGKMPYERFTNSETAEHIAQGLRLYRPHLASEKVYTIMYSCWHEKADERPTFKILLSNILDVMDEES
- test: BTK degradation in TMD-8 cells, HTRF assay after 6 h treatment
- Assay type: cell-based
- conditionNotes: TMD8, maximum percentage of inhibition (degradation)
Label Satisfied for high-side Dmax (at or above 90%) and Not satisfied for low-side Dmax (below it).

CC(C)(C)c1noc(C(=O)NCc2ccc(-c3n[nH]c4ncc(-c5ccc(C6CCN(CC7CCN(c8ccc(N9CCC(=O)NC9=O)cc8)CC7)CC6)cc5)cc34)cc2F)n1; Satisfied
CC(C)(C)c1noc(C(=O)NCc2ccc(-c3n[nH]c4ncc(-c5ccc(N6CCN(CC7CCN(c8ccc(N9CCC(=O)NC9=O)cc8)CC7)CC6)cc5)cc34)cc2F)n1; Satisfied
CC(C)(C)c1nc(C(=O)NCc2ccc(-c3n[nH]c4ncc(-c5ccc(C6CCN(CC7CCN(c8ccc(N9CCC(=O)NC9=O)cc8)CC7)CC6)cc5)cc34)cc2F)no1; Satisfied
CC(C)(C)c1noc(C(=O)NCc2ccc(-c3n[nH]c4ncc(-c5ccc(N6CCN(CCC7CCN(c8ccc(N9CCC(=O)NC9=O)c(F)c8)CC7)CC6)cc5)cc34)cc2F)n1; Satisfied

Now take the following compound into account.
Task item: Given the entry COc1ccc(C(=O)N2CCC(c3ccc(-c4cnc5[nH]nc(-c6ccc(CNC(=O)c7nc(C(C)(C)C)no7)c(F)c6)c5c4)cc3)CC2)cc1N1CCC(=O)NC1=O , answer whether its Dmax meets or surpasses 90%.
Reply: Not satisfied

# credit: patent US20230322761A1
